# assayed.target: Free fatty acid receptor 1 (Homo sapiens)
# Sequence (O14842 whole entry): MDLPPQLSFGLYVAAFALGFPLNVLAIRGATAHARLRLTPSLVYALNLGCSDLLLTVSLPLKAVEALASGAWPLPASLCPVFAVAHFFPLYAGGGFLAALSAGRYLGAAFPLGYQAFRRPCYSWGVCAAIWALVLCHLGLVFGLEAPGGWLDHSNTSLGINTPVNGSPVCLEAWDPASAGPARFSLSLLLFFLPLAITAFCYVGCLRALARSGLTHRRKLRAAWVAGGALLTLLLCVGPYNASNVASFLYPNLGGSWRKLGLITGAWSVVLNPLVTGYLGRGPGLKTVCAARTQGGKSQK
# protocol: Agonist activity at GPR40 (unknown origin) expressed in CHO cells by FLIPR calcium flux assay in presence of 0.1% bovine serum albumin
Catalogue of EC50 readings, one per entry.
measurement.label: EC50 (nM)

O=C(O)CCc1ccc(OCc2nc(-c3cccc(Br)c3)no2)cc1; 1260
CC(Oc1ccc(CCC(=O)O)cc1)c1nc(-c2ccc(Cl)cc2)no1 (stereo not given); 500
O=C(O)CCc1ccc(OCc2nc(-c3cccc(C(F)(F)F)c3)no2)cc1; 1110
O=C(O)CCc1ccc(OCc2ncc(-c3cccc(Cl)c3)o2)cc1; 47500
